System: Klebsiella pneumoniae
Assay: Antibacterial activity against Klebsiella pneumoniae assessed as compound concentration required to complete growth inhibition at 8 hrs by tube dilution method
Assay type: functional
I'd be grateful if you could share measured MIC for these entries.
Note: a bare number is incomplete; add the unit.

// worked examples, MIC included
compound	systemTested	MIC
C=C(C(O)/C=C/C(C)(O)COC(C)=O)[C@@H]1CC(=O)[C@@]2(C)[C@@H]1[C@@H]1[C@H](C)CC[C@@H]12 (mixture of isomers)	Klebsiella pneumoniae	200 µg/mL
C=C(C/C=C/C(C)(C)O)[C@@H]1C[C@@H](O)[C@@]2(C)[C@@H]1[C@@H]1[C@H](C)CC[C@@H]12	Klebsiella pneumoniae	100 µg/mL
C=C(C(O)/C=C/C(C)(O)CO)[C@@H]1C[C@@H](O)[C@@]2(C)[C@@H]1[C@@H]1[C@H](C)CC[C@@H]12 (mixture of isomers)	Klebsiella pneumoniae	200 µg/mL
C=C(C(/C=C/C(C)(O)COC(C)=O)OC(C)=O)[C@@H]1C[C@@H](OC(C)=O)[C@@]2(C)[C@@H]1[C@@H]1[C@H](C)CC[C@@H]12 (stereo partly drawn)	Klebsiella pneumoniae	200 µg/mL
C=C(CC(=O)C=C(C)C)[C@@H]1CC(=O)[C@@]2(C)[C@@H]1[C@@H]1[C@H](C)CC[C@@H]12	Klebsiella pneumoniae	200 µg/mL

Go through the items and report each one's MIC.
1. C=C(C(=O)/C=C/C(C)(O)COC(C)=O)[C@@H]1C[C@@H](OC(C)=O)[C@@]2(C)[C@@H]1[C@@H]1[C@H](C)CC[C@@H]12 (stereo partly drawn)
2. C=C(C/C=C/C(C)(C)O)[C@@H]1C[C@@H](OC(C)=O)[C@@]2(C)[C@@H]1[C@@H]1[C@H](C)CC[C@@H]12 (mixture of isomers)
3. C=C(C(O)/C=C/C(C)(O)COC(C)=O)[C@@H]1C[C@@H](OC(C)=O)[C@@]2(C)[C@@H]1[C@@H]1[C@H](C)CC[C@@H]12 (mixture of isomers)

Solution:
1: 200 µg/mL; 2: 200 µg/mL; 3: 50 µg/mL
